Quick reference: Ki of the listed items.
target: A2AAR (Homo sapiens, UniProt P29274); assay: Binding affinity of A2AAR ligands, radioligand displacement at A2AAR
Sequence (P29274 whole entry): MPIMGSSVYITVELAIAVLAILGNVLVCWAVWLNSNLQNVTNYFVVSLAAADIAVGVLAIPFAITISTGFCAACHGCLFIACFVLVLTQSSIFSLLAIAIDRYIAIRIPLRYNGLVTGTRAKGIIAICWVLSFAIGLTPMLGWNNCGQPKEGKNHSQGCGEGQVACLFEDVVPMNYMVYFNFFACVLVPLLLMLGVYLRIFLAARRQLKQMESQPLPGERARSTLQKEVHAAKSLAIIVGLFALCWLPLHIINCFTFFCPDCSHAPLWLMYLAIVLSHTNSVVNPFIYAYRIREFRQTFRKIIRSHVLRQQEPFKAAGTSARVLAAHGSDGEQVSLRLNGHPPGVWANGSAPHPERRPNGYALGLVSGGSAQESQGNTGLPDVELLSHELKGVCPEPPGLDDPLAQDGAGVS
Give your result in nM as a bare value.

Some solved entries appear below for comparison.
Nc1nc(C#CC2(O)C3CC4CC(C3)CC2C4)nc2c1ncn2C1CCCC1 (stereo not drawn) : 12
C#CCn1cnc2c(NC(CC)CC)nc(C#C[C@]3(O)CCC[C@@H](C)C3)nc21 : 5

Q: Give Ki for the following molecule: C#CCn1cnc2c(N)nc(C#C[C@]3(O)CCC[C@@H](C)C3)nc21
Result: 0.95

----------
molecular target: A1AR (Homo sapiens, UniProt P30542); assay: Binding affinity of A2AAR ligands, radioligand displacement at A1AR; settings: number in parentheses
Sequence (P30542 whole entry): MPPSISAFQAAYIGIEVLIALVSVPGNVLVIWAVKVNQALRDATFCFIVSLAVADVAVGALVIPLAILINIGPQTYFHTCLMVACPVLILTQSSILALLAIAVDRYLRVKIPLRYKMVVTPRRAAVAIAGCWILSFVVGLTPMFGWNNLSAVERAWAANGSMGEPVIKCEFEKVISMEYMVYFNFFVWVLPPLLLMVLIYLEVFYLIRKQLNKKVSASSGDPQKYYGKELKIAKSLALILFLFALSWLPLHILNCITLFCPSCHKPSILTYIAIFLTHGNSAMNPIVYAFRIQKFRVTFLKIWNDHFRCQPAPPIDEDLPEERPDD
label 1 if selectivity ratio vs. the A2AAR, A1AR is below 5. label 0 if not; exact matches included in label 0.

Nc1nc(C#CC2(O)C3CC4CC(C3)CC2C4)nc2c1ncn2C1CCCC1 (stereo not drawn) : label 0

Continue with the next compound.
Q: # strict comparison: is reported selectivity ratio vs. the A2AAR, A1AR < 5? input = C[C@@H]1CCC[C@@](O)(C#Cc2nc(N)c3ncn(C4CCCC4)c3n2)C1
Result: label 0
